FYI, the data here is from ChEMBL document CHEMBL5126623.

ASSAYED_SYSTEM: 17-beta-hydroxysteroid dehydrogenase type 1 (Homo sapiens, UniProt P14061)
Sequence (P14061 whole entry): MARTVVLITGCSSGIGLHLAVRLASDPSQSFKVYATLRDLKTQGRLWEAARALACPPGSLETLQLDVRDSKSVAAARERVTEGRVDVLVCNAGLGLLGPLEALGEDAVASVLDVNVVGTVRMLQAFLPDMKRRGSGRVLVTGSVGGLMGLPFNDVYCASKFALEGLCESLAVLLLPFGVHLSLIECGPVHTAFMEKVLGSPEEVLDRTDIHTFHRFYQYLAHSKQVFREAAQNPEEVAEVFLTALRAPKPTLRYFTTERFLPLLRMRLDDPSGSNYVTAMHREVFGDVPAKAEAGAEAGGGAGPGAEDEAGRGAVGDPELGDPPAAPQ
EXPERIMENT: Inhibition of 17beta-HSD1 in human T47D cells using [3H]E1S as substrate measured after 24 hrs by HPLC analysis
Assay type: cell-based
Reported values of pIC50 for individual entries
When answering, recall that pIC50 equals minus log10 of the concentration in mol/L, and write that number alone.

SMILES_STRUCTURE	pIC50
Cc1ccccc1N(C)C(=O)c1cnc(-c2ccc(O)cc2)s1	6.47
Cc1ccccc1N(C)C(=O)c1ccc(-c2ccc(O)cc2F)o1	8.00
Cc1ccccc1N(C)C(=O)c1ccc(-c2cccc(O)c2)o1	7.54
Cc1ccccc1N(C)C(=O)c1csc(-c2ccc(O)cc2)n1	7.92
Cc1ccccc1N(C)C(=O)c1ccc(-c2ccccc2O)o1	5.72
Cc1ncccc1N(C)C(=O)c1ccc(-c2ccc(O)cc2)o1	7.37
Cc1ccc(F)cc1N(C)C(=O)c1ccc(-c2ccc(O)cc2)o1	7.92
Cc1c(F)cccc1N(C)C(=O)c1ccc(-c2ccc(O)cc2)o1	7.30
Cc1cc(F)ccc1N(C)C(=O)c1ccc(-c2ccc(O)cc2)o1	8.12
Cc1ccccc1N(C)C(=O)c1ccc(-c2ccc(O)c(Cl)c2)o1	7.28

Alright, here's another compound for you.
Item under review: Cc1ccccc1N(C)C(=O)c1ccc(-c2ccc(O)cc2)o1 . Reported pIC50?
7.68

* * *

Species on record: Homo sapiens
EXPERIMENT: Selectivity ratio of IC50 for human placental microsomal fraction 17beta-HSD2 to IC50 for human placental cytosolic fraction 17beta-HSD1
Criterion: Ratio IC50 strictly less than 50. Met: Met. Not met: Not met.

SMILES_STRUCTURE	ANSWER_LABEL
Cc1cc(F)ccc1N(C)C(=O)c1ccc(-c2ccc(O)cc2)o1	Not met
Cc1ccccc1N(C)C(=O)c1ccc(-c2ccc(O)cc2F)o1	Met
Cc1cc(-c2ccc(C(=O)N(C)c3ccccc3C)o2)ccc1O	Not met
Cc1ccncc1N(C)C(=O)c1ccc(-c2ccc(O)cc2)o1	Not met
Cc1ccccc1N(C)C(=O)c1ccc(-c2ccc(O)c(Cl)c2)o1	Not met

Quick check: Ratio IC50 of Cc1ccccc1N(C)C(=O)c1ccc(-c2ccc(O)cc2Cl)o1 under 50?
Met

Quick check: Ratio IC50 of Cc1ccccc1N(C)C(=O)c1nnc(-c2ccc(O)cc2)o1 under 50?
Met

Quick check: Ratio IC50 of Cc1ccccc1N(C)C(=O)c1cnc(-c2ccc(O)cc2)s1 under 50?
Met

Quick check: Ratio IC50 of Cc1ccc(F)cc1N(C)C(=O)c1ccc(-c2ccc(O)cc2)o1 under 50?
Not met

Quick check: Ratio IC50 of Cc1c(F)cccc1N(C)C(=O)c1ccc(-c2ccc(O)cc2)o1 under 50?
Met

Quick check: Ratio IC50 of Cc1ccccc1N(C)C(=O)c1csc(-c2ccc(O)cc2)n1 under 50?
Not met

Quick check: Ratio IC50 of Cc1ccccc1N(C)C(=O)c1ccc(-c2cccc(O)c2)o1 under 50?
Met

Quick check: Ratio IC50 of Cc1cccc(F)c1N(C)C(=O)c1ccc(-c2ccc(O)cc2)o1 under 50?
Met

Quick check: Ratio IC50 of Cc1ccccc1N(C)C(=O)c1ccc(-c2ccc(O)c(F)c2)o1 under 50?
Not met

Quick check: Ratio IC50 of Cc1ncccc1N(C)C(=O)c1ccc(-c2ccc(O)cc2)o1 under 50?
Not met
